experiment: Maximum tolerated dose in ip dosed Swiss mouse assessed as body weight change treated for 5 days; format: ADME, organism-based; settings: in vivo
readout label: MTD at 120 h (mg/kg)
Number in mg/kg, nothing else.

Reported MTD at 120 h ( CN(CCc1c[nH]c2ccccc12)C(=O)c1ccc(-c2ccccc2)cc1 ) = 1000

* * *

assay: Solubility in phosphate buffered saline; assay type: physicochemical
readout label: solubility (µg/mL)
Field format: number, assumed µg/mL, no unit text.

Entry CN(CCc1c[nH]c2ccccc12)C(=O)c1ccc(-c2ccccc2)cc1 , solubility reported as 125

* * *

biological target: CYP3A4 (Homo sapiens); experiment: Inhibition of human recombinant CYP3A4 at 10 uM; type: ADME
Sequence (P08684 whole entry): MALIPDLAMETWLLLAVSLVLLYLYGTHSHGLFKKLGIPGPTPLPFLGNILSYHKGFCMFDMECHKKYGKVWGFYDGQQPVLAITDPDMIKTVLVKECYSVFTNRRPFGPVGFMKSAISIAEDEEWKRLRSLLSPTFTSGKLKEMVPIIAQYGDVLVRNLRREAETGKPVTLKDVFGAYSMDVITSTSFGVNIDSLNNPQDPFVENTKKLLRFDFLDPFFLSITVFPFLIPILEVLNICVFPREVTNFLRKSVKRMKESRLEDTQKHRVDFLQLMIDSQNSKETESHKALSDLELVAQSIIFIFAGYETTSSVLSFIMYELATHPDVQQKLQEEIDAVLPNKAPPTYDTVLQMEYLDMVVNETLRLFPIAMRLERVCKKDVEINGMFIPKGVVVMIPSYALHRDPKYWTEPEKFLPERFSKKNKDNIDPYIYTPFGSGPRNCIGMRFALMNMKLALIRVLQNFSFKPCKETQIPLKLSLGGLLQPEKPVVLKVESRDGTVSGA
readout label: inhibition at 10 µM (%)
Value expressed in %; do not type the unit.

With CYP3A4 (Homo sapiens) as the test system, CN(CCc1c[nH]c2ccccc12)C(=O)c1ccc(-c2ccccc2)cc1 showed inhibition at 10 µM of 50
